Data provenance: patent US9708336B2

target: NDM-1 (Klebsiella pneumoniae, UniProt C7C422); assay: biochemical; assay type: biochemical; details: fluorescence assay with CCF2-FA substrate; read-out: NDM-1 IC50
Sequence (C7C422 whole entry, looked up, species assumed): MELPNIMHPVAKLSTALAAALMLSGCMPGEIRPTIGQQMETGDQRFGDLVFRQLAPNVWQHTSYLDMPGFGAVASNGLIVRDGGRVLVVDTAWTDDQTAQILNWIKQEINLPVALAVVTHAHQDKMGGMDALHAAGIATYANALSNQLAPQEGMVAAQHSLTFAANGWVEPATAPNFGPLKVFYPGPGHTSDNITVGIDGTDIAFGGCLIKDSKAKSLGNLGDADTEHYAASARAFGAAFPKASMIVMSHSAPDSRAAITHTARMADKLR
Items are presented alongside their recorded IC50.
METRIC: IC50 (nM)

[[record]]
compound = "NCC1CCN(c2ccc(C(F)(F)F)c(S(N)(=O)=O)c2-c2nnn[nH]2)CC1"
quantity_unit = "nM"
quantitative_result = 18.1

[[record]]
compound = "N#Cc1cccc(Cc2cccc(S(N)(=O)=O)c2-c2nnn[nH]2)c1"
quantity_unit = "nM"
quantitative_result = 14.2

[[record]]
compound = "NS(=O)(=O)c1cccc(C2CCC2)c1-c1nnn[nH]1"
quantity_unit = "nM"
quantitative_result = 23.7

[[record]]
compound = "CS(=O)(=O)CCn1cc(-c2cccc(S(N)(=O)=O)c2-c2nn[nH]n2)cn1"
quantity_unit = "nM"
quantitative_result = 42.3

[[record]]
compound = "NS(=O)(=O)c1cccc(C2CC2)c1-c1nnn[nH]1"
quantity_unit = "nM"
quantitative_result = 28.7

[[record]]
compound = "NC(=O)c1ccc(-c2ccnc(S(N)(=O)=O)c2-c2nnn[nH]2)cc1"
quantity_unit = "nM"
quantitative_result = 66.9

[[record]]
compound = "NC1CCC(N2CC(c3ccc(-c4ccc(C(F)(F)F)c(S(N)(=O)=O)c4-c4nnn[nH]4)cc3)C2)CC1 (centres unmarked)"
quantity_unit = "nM"
quantitative_result = 4.02

[[record]]
compound = "NS(=O)(=O)c1nccc(N2CCC(N3CCNCC3)CC2)c1-c1nnn[nH]1"
quantity_unit = "nM"
quantitative_result = 888

